- tested system: Human FRA on IGROV-1 human ovarian adenocarcinoma cells (human, UniProt P15328 25-234)
- Sequence (P15328 25-234 limits assumed): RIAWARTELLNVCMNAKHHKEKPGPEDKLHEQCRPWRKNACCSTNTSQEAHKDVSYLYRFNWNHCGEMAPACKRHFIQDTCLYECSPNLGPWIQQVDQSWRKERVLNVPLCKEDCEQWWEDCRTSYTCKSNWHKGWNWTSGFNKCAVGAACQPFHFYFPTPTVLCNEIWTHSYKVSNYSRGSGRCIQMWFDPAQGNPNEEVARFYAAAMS
- assay info: cell-based or functional assay
value type: INTL % (0 Min) (%)
Numbers only, in %.

{"binder": "MORAb-003 anti-FRA antibody, lot NB859-25 (harvested 14 days after initiation of culture) (antibody, human IgG1, kappa, V domains shown, N-linked neutral glycans at Asn299 in SEQ ID NO: 5, also called Day 14 harvest; positive control (round 3)) VH: EVQLVESGGGVVQPGRSLRLSCSASGFTFSGYGLSWVRQAPGKGLEWVAMISSGGSYTYYADSVKGRFAISRDNAKNTLFLQMDSLRPEDTGVYFCARHGDDPAWFAYWGQGTPVTVSS VL: DIQLTQSPSSLSASVGDRVTITCSVSSSISSNNLHWYQQKPGKAPKPWIYGTSNLASGVPSRFSGSGSGTDYTFTISSLQPEDIATYYCQQWSSYPYMYTFGQGTKVEIKR", "INTL % (0 Min) (%)": 0}

Requested read-out: INTL % (0 Min). Entry: MORAb-003 anti-FRA antibody, lot NB810-12 (low temperature; harvested 14 days after initiation of culture) (antibody, human IgG1, kappa, V domains shown, N-linked neutral glycans at Asn299 in SEQ ID NO: 5) VH: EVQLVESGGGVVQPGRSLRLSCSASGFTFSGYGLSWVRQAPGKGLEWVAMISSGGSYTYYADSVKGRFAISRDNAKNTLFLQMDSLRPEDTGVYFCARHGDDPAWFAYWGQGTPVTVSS VL: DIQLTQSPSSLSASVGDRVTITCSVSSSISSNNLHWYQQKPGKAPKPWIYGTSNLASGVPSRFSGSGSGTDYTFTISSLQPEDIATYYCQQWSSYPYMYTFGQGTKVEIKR 0
